This collection of values is drawn from the supplement of paper PMC10567573.

Experiment: protein stability index of a GFP-peptide fusion (GPS, HEK-293T) (PSI 1-6); higher = more stable;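 further: 24-mer peptide tiles fused after GFP, lentivirally expressed, FACS-sorted into six equal bins by GFP/DsRed ratio, decoded by Illumina sequencing, PSI is the read-weighted mean bin number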
Conditions: treatment: MLN4924 1 uM, 8 h; c terminus: a fixed tail appended
readout: protein stability index

{"columns": ["polymer sequence", "readout", "recorded value"],
 "data": [
  ["LMDCCLIVYHPYRPLLQYVQDMGQ [CCNC]", "protein stability index", 3.17],
  ["DLYRDVMLENYSNLVSVGYQAGKP [ZNF649]", "protein stability index", 2.85],
  ["RALQEEERAAAQARRELQAEREAL [ZBED3]", "protein stability index", 5.45],
  ["LTKLLASKSKEEVSSLISEKTNGA [FEM1C]", "protein stability index", 4.38],
  ["VNVGTTALWKHLKSMHREELEKSG [ZBED2]", "protein stability index", 3.48],
  ["IEIATYRKLLEGEESRISVPVHSF [PRPH]", "protein stability index", 2.47],
  ["RNSKASAYCLDQGAEDGDRAILYP [GALNT9]", "protein stability index", 4.4],
  ["ALTGHLRTHSVIKEETNHSEMAED [IKZF1]", "protein stability index", 5.13]
]}
